- assay: qHTS for differential inhibitors of proliferation of Plasmodium falciparum line 7G8 (AID 1815);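 note: parasite growth measured after three days of incubation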
- recorded_conditions: Plasmodium falciparum 7G8 proliferation inhibition; series mostly up to 28.7 µM
Results filed as inconclusive are left out. The source made the active and inactive calls. Calls come from the whole dose curve; as a rule, active = well fitted curve in the direction sought with a large enough effect; inconclusive = small, poorly fitted or top-dose-only effect, or another doubt; inactive = no such curve, though single readings can be large or run the other way.
Select the correct class. Options are active, inactive and nothing else.

>  <compound>
CCOC(=O)c1ncn2c1[C@@H]1CCCN1C(=O)c1cc(OC)ccc1-2

>  <discrete_label>
active

$$$$
>  <compound>
C#CCN[C@H](C)Cc1ccccc1

>  <discrete_label>
inactive

$$$$
>  <compound>
CN1C2CCC1CC(OC(c1ccccc1)c1ccccc1N)C2 (configuration not stated)

>  <discrete_label>
active

$$$$
>  <compound>
CC(N)Cc1c[nH]c2ccc(O)cc12 (configuration not stated)

>  <discrete_label>
inactive

$$$$
>  <compound>
CC1OC1P(=O)(O)O (configuration not stated)

>  <discrete_label>
inactive

$$$$
>  <compound>
CCCN(CCC)C1Cc2cc(OC)c(OC)cc2C1

>  <discrete_label>
inactive

$$$$

Here's the next entry for you.
Record request — test call for CCCN(CCC)CCc1c[nH]c2ccc(C(N)=O)cc12
inactive

---

- System: W2
- assay: qHTS profiling for inhibitors of Plasmodium falciparum proliferation (AID 504749);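 note: 0% = DMSO vehicle and full inhibition = artemisinin control; nearly all actives have a fitted effect of over 60% in size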
- recorded_conditions: P. falciparum in erythrocytes, SYBR Green DNA, 72 h; series mostly up to 28.7 µM
Inconclusive results are not listed. The source made the active and inactive calls. The call rests on the fitted dose curve; in most records, active means well fitted inhibition curve with a large enough effect; inconclusive means small, poorly fitted or top-dose-only effect; inactive means flat fitted curve, though single readings scatter.
assay_readout: Potency

>  <compound>
CCCC(C)C1(CC)C(=O)NC(=O)NC1=O (stereo unspecified)

>  <test_target>
W2

>  <Potency>
inactive

$$$$
>  <compound>
C[C@]12CCC(=O)C[C@@H]1CC[C@@H]1[C@@H]2CC[C@]2(C)[C@@H](O)CC[C@@H]12

>  <test_target>
W2

>  <Potency>
inactive

$$$$
>  <compound>
O=[N+]([O-])c1ccc(F)c([N+](=O)[O-])c1

>  <test_target>
W2

>  <Potency>
inactive

$$$$
>  <compound>
CC(=O)OC1CN2CCC1CC2 (stereo unspecified)

>  <test_target>
W2

>  <Potency>
inactive

$$$$
>  <compound>
CCOC(=O)c1ccccc1C(=O)OCC

>  <test_target>
W2

>  <Potency>
inactive

$$$$

Now turn to the next compound.
Name the recorded Potency for N#CC1(N2CCCCC2)CCCCC1 .
inactive

---

- test_target: Phenylethanolamine N-methyltransferase (Homo sapiens)
- assay: Confirmatory Screen for Target Class Profiling of Small Molecule Inhibitors of Methyltransferases (AID 1745852)
- recorded_conditions: MTase-Glo luminescence, SAH detection, recombinant enzyme; measured here: PNMT max response; stronger effect = lower value
Listed here are compounds together with their documented activity.
Kindly report the value followed by its unit.

Check out these entries, answers already filled in.
>  <compound_string>
COc1cc(C(=O)O[C@H]2[C@@H]3C=CO[C@@H](O[C@@H]4O[C@H](CO)[C@@H](O)[C@H](O)[C@H]4O)[C@@H]3[C@@]3(CO)O[C@@H]23)ccc1O

>  <assay_readout>
activity

>  <result>
-3.91%

$$$$
>  <compound_string>
CN1CCc2cc(O)cc3c2[C@H]1Cc1ccc(O)c(O)c1-3

>  <assay_readout>
activity

>  <result>
-1.47%

$$$$
>  <compound_string>
CN(N=O)c1cc(O)ccc1O

>  <assay_readout>
activity

>  <result>
-42.7%

$$$$
>  <compound_string>
CCCN1CCC[C@@H](c2cccc(O)c2)C1

>  <assay_readout>
activity

>  <result>
6.74%

$$$$

I have this compound here, CCn1cnc2c(Nc3cccc(Cl)c3)nc(N[C@@H]3CCCC[C@@H]3N)nc21 , and I need its recorded activity.
1.09%
